Tested on: NCI-H460
Measurement notes: Cytotoxicity against human NCI-H460 cells after 48 hrs by SRB assay
Assay type: functional
Measurement parameters: Homo sapiens, NCI-H460, 48 h
Quantity name: GI50 (nM)
# number only, unit nM dropped from output

# count of solved cases: 5
- Compound: "COc1cc(C2=CCCCc3ccccc32)cc(OC)c1OC"
  Unit name: "nM"
  Measured value: 32500
- Compound: "COc1cc(C2=CCCCc3c2ccc(OC)c3OP(=O)(O)O)cc(OC)c1OC"
  Unit name: "nM"
  Measured value: 7.96
- Compound: "COc1ccc(C2=CCCCc3c2ccc(OC)c3O)cc1OC"
  Unit name: "nM"
  Measured value: 262
- Compound: "COc1ccc2c(c1Cl)CCCC=C2c1cc(OC)c(OC)c(OC)c1"
  Unit name: "nM"
  Measured value: 71.3
- Compound: "COc1ccc2c(c1N)CCCC=C2c1cc(OC)c(OC)c(OC)c1"
  Unit name: "nM"
  Measured value: 2.8

Read off the recorded GI50 for COc1ccc2c(c1NC(=O)[C@@H](N)CO)CCCC=C2c1cc(OC)c(OC)c(OC)c1
53800

Read off the recorded GI50 for COc1ccc(/C=C\c2cc(OC)c(OC)c(OC)c2)cc1OP(=O)(O)O [FOSBRETABULIN DISODIUM]
1.94

Read off the recorded GI50 for COc1ccc2c(c1O)CCCC=C2c1cc(OC)c(OC)c(OC)c1
0.0418

Read off the recorded GI50 for COc1cc2c(c(OC)c1O)CCCC=C2c1cc(OC)c(OC)c(OC)c1
18000

Read off the recorded GI50 for COc1ccc2c(c1F)CCCC=C2c1cc(OC)c(OC)c(OC)c1
5.47

Read off the recorded GI50 for COc1cc(C2=CCCCc3c2cc(OC)c(OC)c3O)cc(OC)c1OC
25900

Read off the recorded GI50 for COc1ccc(/C=C\c2cc(OC)c(OC)c(OC)c2)cc1O [COMBRETASTATIN A4]
2.23

----------
Measurement notes: Inhibition of calf brain tubulin polymerization after 15 mins by UV-visible spectrophotometry
Parameters: species or system Bos taurus
Parameter pIC50: see the listing below.
// pIC50: -log10(molar conc.)

# count of solved cases: 4
- Smiles representation: "COc1ccc2c(c1Cl)CCCC=C2c1cc(OC)c(OC)c(OC)c1"
  pIC50: 6.03
- Smiles representation: "COc1ccc2c(c1N)CCCC=C2c1cc(OC)c(OC)c(OC)c1"
  pIC50: 5.92
- Smiles representation: "COc1ccc2c(c1O)CCCC=C2c1cc(OC)c(OC)c(OC)c1"
  pIC50: 5.85
- Smiles representation: "COc1ccc2c(c1F)CCCC=C2c1cc(OC)c(OC)c(OC)c1"
  pIC50: 6.05

Okay, now this molecule:
Read off the recorded pIC50 for COc1ccc(C2=CCCCc3c2ccc(OC)c3O)cc1OC
6.13
